Values were extracted from paper PMC11488661.

# target-entity: eOD-GT8 (monomeric ligand) (Human immunodeficiency virus 1, …)
value-type: Kd
Be sure to follow the number with its unit.

Previously resolved entries follow.
1) g28v2-D58-5_CLK19 (antibody, V domains shown) VH: QVQLVQSGAEVKKPGASVKVSCKASGYTFTGYFIHWVRQAPGQGLEWMGWINPNRGGTNYAQKFQGRVTMTRDTSTSTAYMDLSRLRSDDTAMYYCTVVLAAYRWPFAYWGQGTLVTVSS VL: DIRVTQSPSSLSASVGDRVTITCQANQDIRNYLNWYQQKPGKAPKLLIYDVSKLETGVPSRFSGSGSGTDFTFTISSLQSEDIATYYCQQYETFGPGTKVDIK    39 nM
2) GT8-D36-16_CLK09 (antibody, V domains shown) VH: QVQLVQSGAEVKKPGASVKVSCKASGYTFTGYYIHWVRQAPGQGLKWMGWINPNSGGTNYAQKFQGRVTMTRDTSISTAYLELSRLRSDDTAVYYCARVEGLWTFDIWGQGTMVTVSS VL: DIQMTQSPSSLSASVGDRVTITCQASQDISNYLNWYQQKPGKAPKVLIYDASNLETGVPSRFSGSGSGTDFTFTISSLQSEDIATYYCQQYEFFGGGTKVEIK    37.9 nM

Reported Kd ( g28v2-D58-7_CLK09 (antibody, V domains shown) VH: QVQLVQSGAEVKKPGASVKVSCKASGYTFTGYYIHWVRQAPGQGLEWMGWMNPTGGGTNYAQKFQGRVTMTRDTSINTAYMELSRLRSDDTAVYYCTPVLADYRWRFDYWGQGTLVTVSS VL: DIQMTQSPSSLSAFVGDRVTITCQASQGVSKYLNWYQQKPGKAPKLLIYDASNLETGVPSRFSGSGSGTDFTFTISSLQPEDIATYYCQQYEFFGGGTKVEIK ) = 0.512 nM
